Assay: qHTS assay to identify small molecule antagonists of the thyroid receptor (TR) signaling pathway (AID 743065); also: nearly all actives have a fitted effect of over 55% in size
Settings: GH3.TRE-Luc, T3-stimulated luciferase inhibition, 23.5 h; series mostly up to 70.3 µM
Records with an inconclusive call do not appear. The source made the active and inactive calls. Calls follow the shape of the dose curve; as a rule, active = well fitted inhibition curve with a large enough effect in the repeat runs; inconclusive = weak or mixed curves; inactive = no such curve, though single readings can be large or run the other way.
Result category, one only: active, inactive

Reference set (3 entries):
>>> label_class("Cc1cc(Cl)ccc1OCC(=O)O")
"inactive"
>>> label_class("O=[N+]([O-])c1ccccc1O")
"inactive"
>>> label_class("O=C(O)CCl")
"inactive"

Test call for this molecule, please: COc1ccc(N)cc1
inactive

Please indicate how the test categorized COP(=O)(OC)C(O)C(Cl)(Cl)Cl (stereo not drawn) .
inactive

I'd appreciate the recorded outcome for OCCOc1ccccc1 from this test.
inactive

Which result was noted for this molecule in the test: CC[N+]1(C)CCCC1
inactive

How was N#CS classified in this test?
inactive

What did this assay record as the result for CCCCCC[n+]1ccccc1 ?
inactive

Can you look up the reported call for Cc1cc(-c2ccc(N)c(C)c2)ccc1N for me?
inactive

Test call for this molecule, please: Cc1cc(Cl)ccc1N
inactive

Dear all, I need the recorded test outcome for O=C(O)C(Cl)(Cl)Cl , thank you.
inactive

# fetch the recorded call for CCCCn1cc[n+](C)c1 here
inactive

Kindly provide the recorded test outcome for the following molecule: C[C@]12CCC(=O)C=C1CC[C@@H]1[C@@H]2CC[C@]2(C)C(=O)CC[C@@H]12
active

What classification did CCOP(=S)(OCC)Oc1ccc2c(C)c(Cl)c(=O)oc2c1 end up with in this test?
inactive

For Nc1ccc(Cl)cc1 , what call appears in the results of this test?
inactive

Write down the call the test reported for this molecule. Item: Nc1ccc(-c2ccc(N)cc2)cc1
inactive

Hi, do you know how C1CCC(NC2CCCCC2)CC1 came out in this test?
inactive
